- System: Fimbristylis miliacea (L.) VAHL (FIMMI)
- procedure details: Herbicidal mixtures for weed control in transplanted paddy rice (in-water application, visual % injury)
- Assay type: in vivo
- condition details: 35 g/ha alone
endpoint name: % Injury Ob (%)
Number in %, nothing else.

Some solved entries appear below for comparison.
COc1c(Cl)ccc(-c2cc(N)c(Cl)c(C(=O)O)n2)c1F 0
CCN(CC)CC.COc1c(Cl)ccc(-c2cc(N)c(Cl)c(C(=O)O)n2)c1Cl 0
COC(=O)c1ccccc1CS(=O)(=O)NC(=O)Nc1nc(OC)cc(OC)n1 10

Now for the molecule whose % Injury Ob we want.
`CCOC(=O)[C@@H](C)Oc1ccc(Oc2nc3ccc(Cl)cc3o2)cc1` has a reported % Injury Ob of 0
